The compounds listed here are annotated with their EC (1.5-fold increase).
Tested on: SMN2 minigene mRNA (SMN2-A minigene) in HEK293H cells
Assay: SMN2 minigene mRNA splicing RT-qPCR assay in cultured cells
Type: cell-based, human
Conditions: Homo sapiens, HEK293-H; concentration increasing full length SMN2 mRNA 1.5-fold relative to vehicle-treated cells; HEK293H cells with SMN2-A minigene, 24 hours, 7-point concentration data; read-out: EC1.5x for production of full length SMN2 mRNA

Cc1nc2c(F)cc(-c3cc(=O)n4cc(C5=CCNCC5)ccc4n3)cc2o1 = < 0.1 µM

Any idea what its EC (1.5-fold increase) is? The compound is CCN1CCC(c2cc(C)c3nc(-c4ccc5c(cnn5C)c4)cc(=O)n3c2)CC1
0.1 to 0.3 µM

Any idea what its EC (1.5-fold increase) is? The compound is COc1ccc(-c2cc(=O)n3cc(N4CCN[C@@H](C)C4)cc(C)c3n2)cc1OC
0.3 to 1 µM

Any idea what its EC (1.5-fold increase) is? The compound is Cc1cc(-c2cc(=O)n3cc(N4CCNCC4)ccc3n2)cc2cnn(C)c12
1 to 3 µM

----------
The compounds listed here are annotated with their melting point.

The cases that follow already have their melting point on record.
Cn1ncc2cc(-c3cc(=O)n4cc(C5CCNCC5)ccc4n3)ccc21 [Cpd 603] = 268 to 270 °C
Cc1nc2ccc(-c3cc(=O)n4cc(N5C[C@@H](C)N[C@@H](C)C5)ccc4n3)cc2o1 [Compound 172] = 233 to 235 °C
Cc1cc(-c2cc(=O)n3cc(C4CCN(C)CC4)ccc3n2)cc2cn(C)nc12 [Compound 752] = 208 to 210 °C
C[C@H]1CN(c2ccc3nc(-c4ccc5c(cnn5C)c4)cc(=O)n3c2)CCN1 [Compound 553] = 206 to 208 °C
CCc1nc(C)cn2nc(-c3cc(=O)n4cc(N5CCN(C)CC5)ccc4n3)cc12 [Compound 547] = 250 to 252 °C

Any idea what its melting point is? The compound is CCN1CCC(c2ccc3nc(-c4cc(C)c5nc(C)cn5c4)cc(=O)n3c2)CC1 [Compound 615]
202 to 204 °C

Any idea what its melting point is? The compound is CN1CCC(c2ccc3nc(-c4ccc5c(cnn5C)c4)cc(=O)n3c2)CC1 [Compound 475]
216 to 218 °C

Any idea what its melting point is? The compound is CCCN1CCC(c2ccc3nc(-c4cc5c(C)nc(C)cn5n4)cc(=O)n3c2)CC1 [Compound 687]
185 to 187 °C

----------
The compounds listed here are annotated with their EC (1.5-fold increase).
System: SMN2 minigene mRNA (SMN2-A minigene) in HEK293H cells
Experiment: SMN2 minigene mRNA splicing RT-qPCR assay in cultured cells
Format: cell-based, human
Settings: Homo sapiens, HEK293-H; concentration increasing full length SMN2 mRNA 1.5-fold relative to vehicle-treated cells; HEK293H cells with SMN2-A minigene, 24 hours, 7-point concentration data; read-out: EC1.5x for production of full length SMN2 mRNA
Procedure: The reverse transcription-quantitative PCR-based (RT-qPCR) assay is used to quantify the level of the full length SMN2 minigene mRNA containing SMN2 exon 7 in a HEK293H cell line stably transfected with said minigene and treated with a test compound. Protocol. […] The increase of SMN2 minigene FL mRNA relative to that in cells treated with vehicle control is determined from real-time PCR data using a modified ΔΔCt method (as described in Livak and Schmittgen, Methods, 2001, 25:402-8). […]

The cases that follow already have their EC (1.5-fold increase) on record.
Cc1cn2nc(-c3cc(=O)n4cc(C5CCNCC5)ncc4n3)cc2c(C)n1 = < 0.1 µM
O=c1cc(-c2cncc(Cl)c2)nc2ccc(N3CCNCC3)cn12 = 1 to 3 µM
COc1ccc(-c2cc(=O)n3cc(N4CC[C@H](N(C)C)C4)ccc3n2)cc1OC = 1 to 3 µM
Cc1cn2cc(-c3cc(=O)n4cc(N5CCN(C)[C@H](C)C5)ccc4n3)cc(F)c2n1 = < 0.1 µM
COc1ccc(-c2cc(=O)n3cc(C4=CCN(C5CCC5)CC4)cc(C)c3n2)cc1OC = 0.1 to 0.3 µM

Any idea what its EC (1.5-fold increase) is? The compound is COc1ccc(-c2cc(=O)n3cc(C4=CCN(C)CC4)ccc3n2)cc1F
< 0.1 µM

----------
The compounds listed here are annotated with their EC (1.5-fold increase).
System: SMN2 minigene mRNA (SMN2-A minigene) in HEK293H cells
Assay: SMN2 minigene mRNA splicing RT-qPCR assay in cultured cells
Assay type: cell-based, human
Conditions: Homo sapiens, HEK293-H; concentration increasing full length SMN2 mRNA 1.5-fold relative to vehicle-treated cells; HEK293H cells with SMN2-A minigene, 24 hours, 7-point concentration data; read-out: EC1.5x for production of full length SMN2 mRNA

The cases that follow already have their EC (1.5-fold increase) on record.
CCc1nc(C)cn2nc(-c3cc(=O)n4cc(C5CCN(C6CC6)CC5)ccc4n3)cc12 [Compound 680] = < 0.1 µM
C[C@H]1CN(c2ccc3nc(-c4ccc(O)c(OC(F)(F)F)c4)cc(=O)n3c2)CCN1 [Compound 84] = 1 to 3 µM
COc1ccc(-c2cc(=O)n3cc(C4=CCNCC4)ccc3c2)cc1OC [Cpd 245] = 0.3 to 1 µM
Cc1cn2cc(-c3cc(=O)n4cc(N5CCN6CCC[C@@H]6C5)ccc4n3)cc(F)c2n1 [Compound 272] = < 0.1 µM

Quick check: EC (1.5-fold increase) on SMN2 minigene mRNA (SMN2-A minigene) in HEK293H cells, item Cc1cn2nc(-c3cc(=O)n4cc(N5CC[C@@H](CN(C)C)C5)ccc4n3)cc2c(C)n1 [Compound 770] ?
< 0.1 µM

Quick check: EC (1.5-fold increase) on SMN2 minigene mRNA (SMN2-A minigene) in HEK293H cells, item COc1ccc(-c2cc(=O)n3cc(N(C)[C@@H]4CCN(C)C4)ccc3n2)cc1F [Cpd 239] ?
1 to 3 µM

Quick check: EC (1.5-fold increase) on SMN2 minigene mRNA (SMN2-A minigene) in HEK293H cells, item Cc1ccc(-c2cc(=O)n3cc(N4CCNCC4)ccc3n2)cc1 [Compound 63] ?
1 to 3 µM

Quick check: EC (1.5-fold increase) on SMN2 minigene mRNA (SMN2-A minigene) in HEK293H cells, item CCNC[C@@H]1CCN(c2ccc3nc(-c4cc5c(C)nc(C)cn5n4)cc(=O)n3c2)C1 [Compound 779] ?
< 0.1 µM

----------
The compounds listed here are annotated with their EC (1.5-fold increase).
Test system: SMN2 minigene mRNA (SMN2-A minigene) in HEK293H cells
Test: SMN2 minigene mRNA splicing RT-qPCR assay in cultured cells
Type: cell-based, human
Conditions: Homo sapiens, HEK293-H; concentration increasing full length SMN2 mRNA 1.5-fold relative to vehicle-treated cells; HEK293H cells with SMN2-A minigene, 24 hours, 7-point concentration data; read-out: EC1.5x for production of full length SMN2 mRNA

Quick check: EC (1.5-fold increase) on SMN2 minigene mRNA (SMN2-A minigene) in HEK293H cells, item O=c1cc(-c2cccc(Cl)c2)nc2ccc(N3CCNCC3)cn12 [Compound 41] ?
0.3 to 1 µM

Quick check: EC (1.5-fold increase) on SMN2 minigene mRNA (SMN2-A minigene) in HEK293H cells, item Cc1cc(-c2cc(=O)n3cc(N4CCN(C)CC4)ccc3n2)cc2cn(C)nc12 [Compound 768] ?
< 0.1 µM

----------
The molecules listed here are annotated with their melting point.

Cc1cccc(-c2cc(=O)n3cc(N4CCNCC4)ccc3n2)c1 = 183 to 187 °C
COc1ccc(-c2cc(=O)n3cc(C4CCNCC4)ccc3n2)cc1F = 122 to 125 °C
CCc1nc(C)cn2nc(-c3cc(=O)n4cc(N5CCN(C(C)C)CC5)ccc4n3)cc12 = 255 to 258 °C
CN(C)c1cccc(-c2cc(=O)n3cc(N4CCNCC4)ccc3n2)c1 = 178 to 180 °C

Below: the item to evaluate.
Any idea what its melting point is? The molecule is Cc1cc(-c2cc(=O)n3cc(C4CCNCC4)ccc3n2)cc2cnn(C)c12
220 to 222 °C

----------
System: SMN2 minigene mRNA (SMN2-A minigene) in HEK293H cells
Experiment: SMN2 minigene mRNA splicing RT-qPCR assay in cultured cells
Format: cell-based, human
Details: Homo sapiens, HEK293-H; concentration increasing full length SMN2 mRNA 1.5-fold relative to vehicle-treated cells; HEK293H cells with SMN2-A minigene, 24 hours, 7-point concentration data; read-out: EC1.5x for production of full length SMN2 mRNA
The molecules listed here are annotated with their EC (1.5-fold increase).

The cases that follow already have their EC (1.5-fold increase) on record.
COc1ccc(-c2cc(=O)n3cc(N4CCNCC4)cc(C)c3n2)cc1OC = < 0.1 µM
COc1ccc(-c2cc(=O)n3cc(C4=CCCNC4)ccc3n2)cc1OC = 0.3 to 1 µM
Cc1cn2nc(-c3cc(=O)n4cc(N5CCN(C)[C@@H](C)C5)cc(C)c4n3)cc2c(C)n1 = 0.1 to 0.3 µM
Cc1cn2nc(-c3cc(=O)n4cc(N5CCC(C)(N)CC5)ccc4n3)cc2c(C)n1 = < 0.1 µM
CNC1CCN(c2ccc3nc(-c4ccc(OC)c(F)c4)cc(=O)n3c2)CC1 = < 0.1 µM

Below: the item to evaluate.
Any idea what its EC (1.5-fold increase) is? The molecule is CN1CCN(c2ccc3nc(-c4ccc5c(c4)OCO5)cc(=O)n3c2)CC1
1 to 3 µM
